Assign IC50 to each entry below.
target: Full length human recombinant PIKFYVE (Homo sapiens (Human), UniProt Q9Y2I7); experiment: Inhibition of PIKfyve (microfluidic electrophoresis kinase assay); settings: 2 nM enzyme, PI3P/PS substrate, 3 h at room temperature, 12 concentrations
Sequence (Q9Y2I7 whole entry): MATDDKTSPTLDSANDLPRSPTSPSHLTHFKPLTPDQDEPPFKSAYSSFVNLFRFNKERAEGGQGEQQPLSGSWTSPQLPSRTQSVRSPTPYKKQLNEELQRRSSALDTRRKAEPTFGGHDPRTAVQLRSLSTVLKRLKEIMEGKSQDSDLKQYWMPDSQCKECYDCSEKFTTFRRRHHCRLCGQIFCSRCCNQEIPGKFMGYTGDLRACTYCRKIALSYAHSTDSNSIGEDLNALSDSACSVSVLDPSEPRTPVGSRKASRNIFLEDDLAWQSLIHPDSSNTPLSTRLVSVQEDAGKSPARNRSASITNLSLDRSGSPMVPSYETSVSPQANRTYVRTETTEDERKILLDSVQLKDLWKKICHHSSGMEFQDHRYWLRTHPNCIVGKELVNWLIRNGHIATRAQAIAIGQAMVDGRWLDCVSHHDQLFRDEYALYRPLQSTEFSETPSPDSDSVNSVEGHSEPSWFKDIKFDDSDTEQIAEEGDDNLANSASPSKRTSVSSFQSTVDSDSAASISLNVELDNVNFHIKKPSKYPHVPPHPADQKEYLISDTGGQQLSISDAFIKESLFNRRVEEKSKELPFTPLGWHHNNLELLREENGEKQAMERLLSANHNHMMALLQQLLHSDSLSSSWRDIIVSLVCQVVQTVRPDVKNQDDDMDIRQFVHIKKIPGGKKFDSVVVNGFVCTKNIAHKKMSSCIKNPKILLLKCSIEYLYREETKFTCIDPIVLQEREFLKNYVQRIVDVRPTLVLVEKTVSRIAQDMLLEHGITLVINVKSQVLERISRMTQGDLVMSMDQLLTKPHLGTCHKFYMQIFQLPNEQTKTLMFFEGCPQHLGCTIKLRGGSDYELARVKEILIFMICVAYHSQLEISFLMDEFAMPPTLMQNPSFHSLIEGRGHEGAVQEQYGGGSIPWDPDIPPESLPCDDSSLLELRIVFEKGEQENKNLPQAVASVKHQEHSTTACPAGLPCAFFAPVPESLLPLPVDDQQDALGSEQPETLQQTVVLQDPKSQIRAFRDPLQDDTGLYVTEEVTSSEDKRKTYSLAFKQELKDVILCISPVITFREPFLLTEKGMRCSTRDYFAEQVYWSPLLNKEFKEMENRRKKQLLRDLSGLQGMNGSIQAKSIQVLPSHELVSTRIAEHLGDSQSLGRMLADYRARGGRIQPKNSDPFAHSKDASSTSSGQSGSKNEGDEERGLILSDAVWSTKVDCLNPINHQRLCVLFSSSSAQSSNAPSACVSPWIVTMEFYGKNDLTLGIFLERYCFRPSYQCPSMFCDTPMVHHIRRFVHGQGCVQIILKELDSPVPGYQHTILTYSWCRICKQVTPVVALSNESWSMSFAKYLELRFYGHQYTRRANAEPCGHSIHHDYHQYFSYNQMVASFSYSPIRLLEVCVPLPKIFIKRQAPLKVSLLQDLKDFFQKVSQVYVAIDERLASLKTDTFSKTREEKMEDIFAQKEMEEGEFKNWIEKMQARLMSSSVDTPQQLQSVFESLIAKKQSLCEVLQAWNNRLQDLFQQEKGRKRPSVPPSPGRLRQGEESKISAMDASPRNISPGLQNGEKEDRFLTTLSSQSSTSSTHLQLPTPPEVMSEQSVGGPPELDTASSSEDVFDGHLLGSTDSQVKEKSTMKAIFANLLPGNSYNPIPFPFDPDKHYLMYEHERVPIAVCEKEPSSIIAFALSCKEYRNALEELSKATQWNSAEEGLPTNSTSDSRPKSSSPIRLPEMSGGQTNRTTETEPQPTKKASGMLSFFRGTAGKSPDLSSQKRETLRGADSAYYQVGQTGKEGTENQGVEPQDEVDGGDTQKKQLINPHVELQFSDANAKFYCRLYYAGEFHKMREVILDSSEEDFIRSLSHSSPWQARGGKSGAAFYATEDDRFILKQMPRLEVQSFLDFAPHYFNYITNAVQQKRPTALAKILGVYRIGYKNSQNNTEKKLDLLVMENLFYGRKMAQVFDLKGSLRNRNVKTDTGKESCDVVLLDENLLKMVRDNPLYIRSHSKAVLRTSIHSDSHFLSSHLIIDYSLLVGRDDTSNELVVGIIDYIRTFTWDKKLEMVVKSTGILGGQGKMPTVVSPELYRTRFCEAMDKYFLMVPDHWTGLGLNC
Provide only the numeric value, understood in nM.

Query block: Write down IC50 measured for item c1ccc(-c2ccn(-c3cc(N4CCOCC4)n4nc(-c5ccncc5)cc4n3)n2)cc1
Result block: 207

Query block: Write down IC50 measured for item Cc1cccc(-c2ccn(-c3cc(N4CCOCC4)n4nc(C(=O)NOC5COC5)cc4n3)n2)c1
Result block: 122

Query block: Write down IC50 measured for item c1ccc(-c2ccn(-c3cc(N4CCOCC4)n4nc(-c5cncnc5)cc4n3)n2)cc1
Result block: 752

Query block: Write down IC50 measured for item Cc1cccc(-c2ccn(-c3cc(N4CCOCC4)n4nc(-c5ccccn5)cc4n3)n2)c1
Result block: 29.6

Query block: Write down IC50 measured for item C[C@@H](NC(=O)c1cc2nc(-n3ccc(-c4ccccc4)n3)cc(N3CCOCC3)n2n1)C1CC1
Result block: 353

Query block: Write down IC50 measured for item Cc1cccc(-c2ccn(-c3cc(N4CCOCC4)n4nc(C(=O)N[C@@H]5CCOC5)cc4n3)n2)c1
Result block: 64.7

Query block: Write down IC50 measured for item Cc1cccc(-c2cnn(-c3cc(N4CCOCC4)n4nc(-c5ccncn5)cc4n3)c2)c1
Result block: 3750

Query block: Write down IC50 measured for item c1ccc(-c2ccn(-c3cc(N4CCOCC4)n4nc(-c5cn[nH]c5)cc4n3)n2)cc1
Result block: 80.9

Query block: Write down IC50 measured for item Cc1cccc(-c2ccn(-c3cc(N4CCOCC4)n4nc(C(=O)N(C)C)cc4n3)n2)c1
Result block: 276

Query block: Write down IC50 measured for item Cc1cccc(-c2ccn(-c3cc(N4CCOCC4)n4nc(-c5nccs5)cc4n3)n2)c1
Result block: 2.7

Query block: Write down IC50 measured for item c1cc(-c2cc3nc(Nc4cc(-c5ccncc5)[nH]n4)cc(N4CCOCC4)n3n2)ccn1
Result block: 6100

Query block: Write down IC50 measured for item Cc1cccc(-c2ccn(-c3cc(N4CCOCC4)n4nc(C(=O)N[C@H]5CCN(C)C5)cc4n3)n2)c1
Result block: 41.3

Query block: Write down IC50 measured for item CCC(=O)NCc1cc2nc(-n3ccc(-c4ccccc4)n3)cc(N3CCOCC3)n2n1
Result block: 2160

Query block: Write down IC50 measured for item c1ccc(-c2ccn(-c3cc(N4CCOCC4)n4nc(-c5cccnn5)cc4n3)n2)cc1
Result block: 208

Query block: Write down IC50 measured for item Cc1cccc(-c2ccn(-c3cc(N4CCOCC4)n4nc(C(=O)NC5CCCC5)cc4n3)n2)c1
Result block: 21.6

Query block: Write down IC50 measured for item Cc1cc(-c2cc3nc(-n4ccc(-c5ccccc5)n4)cc(N4CCOCC4)n3n2)nn1CCN(C)C
Result block: 127

Query block: Write down IC50 measured for item Nc1cccc(-c2cc3nc(-n4ccc(-c5ccccc5)n4)cc(N4CCOCC4)n3n2)n1
Result block: 278

Query block: Write down IC50 measured for item CONC(=O)c1cc2nc(-n3ccc(-c4cccc(C)c4)n3)cc(N3CCOCC3)n2n1
Result block: 65.6

Query block: Write down IC50 measured for item Cc1cccc(-c2ccn(-c3cc(N4CCOCC4)n4nc(C(=O)N5CCCC5)cc4n3)n2)c1
Result block: 94.6

Query block: Write down IC50 measured for item Cc1cccc(-c2ccn(-c3cc(N4CCOCC4)n4nc(C(=O)NC5COC5)cc4n3)n2)c1
Result block: 63.3

Query block: Write down IC50 measured for item Cn1ccc(-c2cc3nc(-n4ccc(-c5cccc(Cl)c5)n4)cc(N4CCOCC4)n3n2)n1
Result block: 41

Query block: Write down IC50 measured for item Cc1cc(-c2cc3nc(-n4ccc(-c5cccc(Cl)c5)n4)cc(N4CCOCC4)n3n2)nn1CCN(C)C
Result block: 126

Query block: Write down IC50 measured for item c1ccc(-c2ccn(-c3cc(N4CCOCC4)n4nc(-c5cnccn5)cc4n3)n2)cc1
Result block: 169

Query block: Write down IC50 measured for item Cc1cccc(-c2ccn(-c3cc(N4CCOCC4)n4nc(C(=O)N5CCOCC5)cc4n3)n2)c1
Result block: 242

Query block: Write down IC50 measured for item Nc1ncccc1-c1cc2nc(-n3ccc(-c4ccccc4)n3)cc(N3CCOCC3)n2n1
Result block: 378

Query block: Write down IC50 measured for item Cc1cccc(-c2ccn(-c3cc(N4CCOCC4)n4nc(C(=O)N[C@H]5CCCN(C)C5)cc4n3)n2)c1
Result block: 26.8

Query block: Write down IC50 measured for item Cc1cccc(-c2ccn(-c3cc(N4CCOCC4)n4nc(C(=O)NC5CC5)cc4n3)n2)c1
Result block: 30.2

Query block: Write down IC50 measured for item Cc1cccc(-c2ccn(-c3cc(N4CCOCC4)n4nc(C(=O)NCC5CC5)cc4n3)n2)c1
Result block: 73.7
